The measurements presented in this section are drawn from patent EP4755886A1.

Quick reference: pIC50 of the listed items.
system: wild-type HCT-116 cells; assay: Cell proliferation (MTS), wild-type HCT-116; format: cell-based; details: Homo sapiens, 240 h; wild-type HCT-116, 10 days with compound, MTS reading; read-out: IC50 HCT116 WT
pIC50: −log10 of the molar value.

>  <compound>
CN(C(=O)c1cc2c3c(c(N)nc2cc1Cl)COC3)[C@@H]1COc2cc(C#Cc3cnc4cnn(C)c4c3)ccc21 [Compound 76A]

>  <pIC50>
6.78

$$$$
>  <compound>
CN(C(=O)c1cc2c(cc1F)nc(N)c1cnn(C)c12)[C@@H]1COc2cc(C#Cc3cnn(C4CCC4)c3)ccc21 [Compound 89A]

>  <pIC50>
6.58

$$$$
>  <compound>
Cc1cn(C)nc1C#Cc1ccc2c(c1)OCC2N(C)C(=O)c1cc2c(cc1F)nc(N)c1cnn(C)c12 (stereo not shown)

>  <pIC50>
5.69

$$$$
>  <compound>
Cc1ccc(C#Cc2ccc3c(c2)OC[C@H]3N(C)C(=O)c2cc3c4c(c(N)nc3cc2Cl)COC4)cn1 [Compound 58A]

>  <pIC50>
5.65

$$$$

###

test system: wild-type HCT-116 cells; experiment: Cell proliferation (MTS), wild-type HCT-116; type: cell-based; details: Homo sapiens, 240 h; wild-type HCT-116, 10 days with compound, MTS reading; read-out: IC50 HCT116 WT
pIC50: −log10 of the molar value.
measured.endpoint: pIC50

>  <molecule>
CN(C(=O)c1cc2c3c(c(N)nc2cc1F)COC3)[C@@H]1COc2cc(C#Cc3cnn(C4CC4)c3)ccc21 [Compound 16A]

>  <reading>
5.93

$$$$
>  <molecule>
CN(C(=O)c1cc2c(cc1F)nc(N)c1cnn(C)c12)C1COc2cc(C#Cc3cn(C)nc3C(F)(F)F)ccc21 (stereo not shown) [Compound 32]

>  <reading>
5.64

$$$$
>  <molecule>
Cc1ncccc1C#Cc1ccc2c(c1)OC[C@H]2N(C)C(=O)c1cc2c3c(c(N)nc2cc1Cl)COC3 [Compound 57A]

>  <reading>
6.00

$$$$
>  <molecule>
CN(C(=O)c1cc2c3c(c(N)nc2cc1Cl)COC3)[C@@H]1COc2cc(C#Cc3ccc4cnn(C)c4c3)ccc21 [Compound 62A]

>  <reading>
5.90

$$$$
>  <molecule>
Cc1cc2nc(N)c3cnn(C)c3c2cc1C(=O)N(C)C1COc2cc(C#Cc3cnn(C)c3)ccc21 (stereo not shown) [Compound 10]

>  <reading>
6.79

$$$$
>  <molecule>
Cc1c(C#Cc2ccc3c(c2)OC[C@H]3N(C)C(=O)c2cc3c(cc2Cl)nc(N)c2cnn(C)c23)cnn1C [Compound 22A]

>  <reading>
7.26

$$$$
>  <molecule>
CN(C(=O)c1cc2c3c(c(N)nc2cc1Cl)COC3)[C@@H]1COc2cc(C#Cc3cnc4n3CCCC4)ccc21 [Compound 74A]

>  <reading>
6.33

$$$$

###

test system: wild-type HCT-116 cells; assay: Cell proliferation (MTS), wild-type HCT-116; type: cell-based; conditions: Homo sapiens, 240 h; wild-type HCT-116, 10 days with compound, MTS reading; read-out: IC50 HCT116 WT
Please use y for IC50 under 600 nM and n for everything else, ties included.

>  <compound>
CCn1cc(C#Cc2ccc3c(c2)OC[C@H]3N(C)C(=O)c2cc3c4c(c(N)nc3cc2Cl)COC4)cn1 [Compound 69A]

>  <label>
n

$$$$
>  <compound>
CCN(C(=O)c1cc2c(cc1F)nc(N)c1cnn(C)c12)C1COc2cc(C#Cc3cnn(C)c3)ccc21 (stereo not shown) [Compound 27]

>  <label>
y

$$$$
>  <compound>
Cc1c(C#Cc2ccc3c(c2)OC[C@H]3N(C)C(=O)c2cc3c4c(c(N)nc3cc2Cl)COC4)cnn1C1CC1 [Compound 71A]

>  <label>
n

$$$$
>  <compound>
CN(C(=O)c1cc2c3c(c(N)nc2cc1Cl)COC3)[C@@H]1COc2cc(C#Cc3cnn4c3CCCC4)ccc21 [Compound 91A]

>  <label>
n

$$$$
>  <compound>
CN(C(=O)c1cc2c3c(c(N)nc2cc1Cl)COC3)[C@@H]1COc2cc(C#Cc3cnn(C4CC4)c3)ccc21 [Compound 43A]

>  <label>
n

$$$$
>  <compound>
Cc1nn(C)cc1C#Cc1ccc2c(c1)OC[C@H]2N(C)C(=O)c1cc2c3c(c(N)nc2cc1Cl)COC3 [Compound 50A]

>  <label>
y

$$$$
>  <compound>
CN(C(=O)c1cc2c(cc1F)nc(N)c1cnn(C)c12)[C@@H]1COc2cc(C#Cc3cnn(C4CC4)c3)ccc21 [Compound 12A]

>  <label>
y

$$$$
